In this section we review reported Draize score values for a set of compounds.
Tested on: guinea pig skin
Assay: Continuous irritative test of guinea pig skin (Draize method)
Format: in vivo, guinea pig (Hartley series)
Conditions: Table 2, by stereoisomer ratio; 0.5% in ethanol/propylene glycol (7:3), 3 days straight; full marks 8 points
Hi! Could you send only the number? It should be in points, unit omitted.

Some compounds with recorded Draize score:
- compound: "CC(=O)OC[C@H]1OC(OC(C)=O)[C@H](NC(=O)/C=C(C)/C=C/C=C(C)/C=C/C2=C(C)CCCC2(C)C)[C@@H](OC(C)=O)[C@@H]1OC(C)=O (single isomer, unassigned) [1,3,4,6-tetra-O-acetyl-N-retinoyl-D-glucosamine (13-cis isom]"
  readout-units: "points"
  recorded-measurement: 0.0
- compound: "CC(=O)OC[C@H]1OC(OC(C)=O)[C@H](NC(=O)/C=C(C)/C=C/C=C(C)/C=C/C2=C(C)CCCC2(C)C)[C@@H](OC(C)=O)[C@@H]1OC(C)=O (single isomer, unassigned) [1,3,4,6-tetra-O-acetyl-N-retinoyl-D-glucosamine (9-cis isome]"
  readout-units: "points"
  recorded-measurement: 0.0

Request: GET /values?readout=Draize score&item= CC(C=CC1=C(C)CCCC1(C)C)=CC=CC(C)=CC(=O)N[C@H]1C(O)O[C@H](CO)[C@@H](O)[C@@H]1O (single isomer, unassigned) [N-retinoyl-D-glucosamine (13-cis isomer/trans isomer = 0.5/99.5), N-retinoyl-D-glucosamine]
Result: 0.0

====

Items are presented alongside their recorded Acne treating effect.
Test system: acne patients
Experiment: Acne-improvement evaluation
Assay type: in vivo, human
Conditions: percentage of subjects rated improved or better; essence with 0.05%, one month
Numeric only. Scale: %

- compound: "CC(C=CC1=C(C)CCCC1(C)C)=CC=CC(C)=CC(=O)N[C@H]1C(O)O[C@H](CO)[C@@H](O)[C@@H]1O (single isomer, unassigned)"
  Acne treating effect / %: 100
- compound: "CCCCCCCCCCCCCCCCCCCCCCOCCOCCOCCOCCOCCOCCOCCOCCOCCOCCOC(=O)N[C@H]1C(O)O[C@H](CO)[C@@H](O)[C@@H]1O (stereo partly shown)"
  Acne treating effect / %: 40

Request: Field request: Acne treating effect | item: CCCCCCCCCCCCCCCCOCCOCCOC(=O)N[C@H]1C(O)O[C@H](CO)[C@@H](O)[C@@H]1O (stereo partly shown)
Result: 60

Request: Would you mind telling me what Acne treating effect value was observed for CCCCCCCCCCCCCCCCCCOCCOCCOCCOCCOCCOC(=O)N[C@H]1C(O)O[C@H](CO)[C@@H](O)[C@@H]1O (stereo partly shown) ?
Result: 40

====

Tested on: guinea pig skin
Experiment: Continuous irritative test of guinea pig skin (Draize method)
Assay type: in vivo, guinea pig (Hartley series)
Conditions: Table 2, by stereoisomer ratio; 0.5% in ethanol/propylene glycol (7:3), 3 days straight; full marks 8 points
test-readout: Draize score (points)
Write it as a number; the unit points goes unstated.

- compound: "CC(=O)OC[C@H]1OC(OC(C)=O)[C@H](NC(=O)/C=C(C)/C=C/C=C(C)/C=C/C2=C(C)CCCC2(C)C)[C@@H](OC(C)=O)[C@@H]1OC(C)=O (single isomer, unassigned) [1,3,4,6-tetra-O-acetyl-N-retinoyl-D-glucosamine (9-cis isome]"
  test-readout: "Draize score"
  recorded-measurement: 0.0

Request: Using the record for CC(C=CC1=C(C)CCCC1(C)C)=CC=CC(C)=CC(=O)N[C@H]1C(O)O[C@H](CO)[C@@H](O)[C@@H]1O (single isomer, unassigned) [N-retinoyl-D-glucosamine (cis isomer/trans isomer = 0/100), N-retinoyl-D-glucosamine] , report its Draize score.
Result: 0.0

Request: Given the compound CC(C=CC1=C(C)CCCC1(C)C)=CC=CC(C)=CC(=O)N[C@H]1C(O)O[C@H](CO)[C@@H](O)[C@@H]1O (single isomer, unassigned) [N-retinoyl-D-glucosamine (9-cis isomer/trans isomer = 0.5/99.5), N-retinoyl-D-glucosamine] , what is its reported Draize score?
Result: 0.1

Request: Could you tell me which Draize score is on file for CC(=O)OC[C@H]1OC(OC(C)=O)[C@H](NC(=O)/C=C(C)/C=C/C=C(C)/C=C/C2=C(C)CCCC2(C)C)[C@@H](OC(C)=O)[C@@H]1OC(C)=O (single isomer, unassigned) [1,3,4,6-tetra-O-acetyl-N-retinoyl-D-glucosamine (cis isomer/] ?
Result: 0.0

====

Tested on: guinea pig skin
Test: Continuous irritative test of guinea pig skin (Draize method)
Assay type: in vivo, guinea pig (Hartley series)
Details: Table 1; 0.5% in ethanol/propylene glycol (7:3), 50 μL once a day, 3 days straight; total of erythema and edema, full marks 8 points
test-readout: Draize score (points)
# unit: points | format: bare number

Previously resolved entries follow.
- compound: "CCCCCCCCCCCCCCCCOCCOCCOC(=O)N[C@H]1C(O)O[C@H](CO)[C@@H](O)[C@@H]1O (stereo partly drawn)"
  measured-on: "guinea pig skin"
  recorded-measurement: 0.1
- compound: "CCCCC/C=C\\C/C=C\\CCCCCCCC(=O)N[C@H]1C(O)O[C@H](CO)[C@@H](O)[C@@H]1O (stereo partly drawn)"
  measured-on: "guinea pig skin"
  recorded-measurement: 0.3

Request: Recorded Draize score of CC(=O)OC[C@H]1OC(OC(C)=O)[C@H](NC(=O)/C=C(C)/C=C/C=C(C)/C=C/C2=C(C)CCCC2(C)C)[C@@H](OC(C)=O)[C@@H]1OC(C)=O (stereo partly drawn) , please.
Result: 0.0
